Here, each record is paired with measured log10 of IC50 data.
targetOrTestSystem: UniProt:Q9H2K2
method: TNKS2 Assay 1 (TNKS2 Histone Ribosylation Assay Kit, biotin-labeled NAD+)
Assay type: biochemical
cond: chemiluminescent readout, 384 well, first table
assayReadout: log10 of IC50 (log10 of the value in nM)

> print(dat)
                                   molecule  quantitativereadout
1  CNC(=O)c1nc[nH]c1C(=O)Nc1ccc(NC(=O)c2c(C)cc(F)cc2C)cc1 [Example 23]                 2.53
2  CNC(=O)c1nc[nH]c1C(=O)Nc1ccc(NC(=O)c2ccccc2Cl)cc1 [Example 27]                 1.60
3  CNC(=O)c1nc[nH]c1C(=O)Nc1ccc(NC(=O)c2ccc(Cl)cc2Cl)cc1 [Example 9]                 1.30
4  O=C(Nc1ccc(NC(=O)c2[nH]cnc2C(=O)NCC(F)(F)F)cc1)c1ccc(F)cc1Cl [Example 30]                 1.85
5  CC(C)NC(=O)c1ncoc1C(=O)Nc1ccc(NC(=O)c2ccc(F)cc2Cl)cc1 [Example 15]                 3.06
6  CNC(=O)c1nc[nH]c1C(=O)Nc1ccc(NC(=O)c2ccncc2Cl)cc1 [Example 6]                 1.70
7  COC(=O)c1ncoc1C(=O)Nc1ccc(NC(=O)c2ccc(F)cc2Cl)cc1 [Example 14]                 2.48
8  CNC(=O)c1nc[nH]c1C(=O)Nc1ccc(NC(=O)c2ccccc2C)cc1 [Example 19]                 2.46

====

targetOrTestSystem: TNKS2 (Homo sapiens)
Sequence (Q9H2K2 1-1166): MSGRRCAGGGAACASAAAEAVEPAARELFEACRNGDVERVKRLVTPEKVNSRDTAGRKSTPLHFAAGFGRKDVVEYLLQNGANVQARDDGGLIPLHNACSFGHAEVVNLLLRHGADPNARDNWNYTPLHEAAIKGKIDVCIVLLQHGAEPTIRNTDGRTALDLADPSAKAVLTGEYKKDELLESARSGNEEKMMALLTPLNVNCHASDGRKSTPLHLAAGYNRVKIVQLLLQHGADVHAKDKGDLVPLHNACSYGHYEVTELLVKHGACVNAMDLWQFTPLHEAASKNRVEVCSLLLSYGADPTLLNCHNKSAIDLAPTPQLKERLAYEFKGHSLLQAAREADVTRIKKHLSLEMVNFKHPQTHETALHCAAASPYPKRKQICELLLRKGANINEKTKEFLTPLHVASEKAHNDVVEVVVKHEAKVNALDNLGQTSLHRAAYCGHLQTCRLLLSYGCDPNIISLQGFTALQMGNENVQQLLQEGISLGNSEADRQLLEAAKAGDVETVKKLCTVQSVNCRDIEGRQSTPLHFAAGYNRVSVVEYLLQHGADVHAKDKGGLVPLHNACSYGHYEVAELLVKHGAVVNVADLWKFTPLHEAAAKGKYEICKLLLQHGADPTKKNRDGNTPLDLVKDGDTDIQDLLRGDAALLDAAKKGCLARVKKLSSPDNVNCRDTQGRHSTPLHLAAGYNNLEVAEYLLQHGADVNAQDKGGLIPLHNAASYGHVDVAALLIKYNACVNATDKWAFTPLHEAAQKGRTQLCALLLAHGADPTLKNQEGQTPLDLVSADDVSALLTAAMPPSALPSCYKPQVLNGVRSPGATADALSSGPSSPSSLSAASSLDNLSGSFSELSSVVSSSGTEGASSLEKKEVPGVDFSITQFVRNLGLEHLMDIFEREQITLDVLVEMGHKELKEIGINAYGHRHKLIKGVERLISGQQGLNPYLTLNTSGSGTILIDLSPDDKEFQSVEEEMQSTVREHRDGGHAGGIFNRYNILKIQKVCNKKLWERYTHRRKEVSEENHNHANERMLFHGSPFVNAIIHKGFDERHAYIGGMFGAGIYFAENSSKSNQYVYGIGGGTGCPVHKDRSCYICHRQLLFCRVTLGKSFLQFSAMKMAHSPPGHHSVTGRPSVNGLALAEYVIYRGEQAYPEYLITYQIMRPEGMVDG
method: Modified TNKS2 Assay 3 (BPS kit #80578, biotin-NAD+, 96 well)
Assay type: biochemical
cond: human TNKS2, BPS kit #80578, 96 well
pIC50: −log10 of the molar value.
assayReadout: pIC50

> print(dat)
                                   compound    targetortestsystem  censoringoperator  quantitativereadout
1  CC(C)(CNC(=O)c1[nH]cnc1C(=O)Nc1ccc(NC(=O)c2ccc(F)cc2Cl)cc1)N1CCCCC1  TNKS2 (Homo sapiens)                  =                 8.70
2  O=C(Nc1ccc(NC(=O)c2nc[nH]c2C(=O)NCCN2CCC(F)(F)CC2)cc1)c1ccc(F)cc1Br  TNKS2 (Homo sapiens)                  =                 6.92
3  CC(C)c1nc(C(=O)Nc2ccc(NC(=O)c3ccc(F)cc3Cl)cc2)c(C(=O)NCCN2CCCCC2)[nH]1  TNKS2 (Homo sapiens)                  <                 6.30
4  CCN1CCCC1CNC(=O)c1nc[nH]c1C(=O)Nc1ccc(NC(=O)c2ccc(F)cc2Cl)cc1 (stereo not shown)  TNKS2 (Homo sapiens)                  =                 8.52

====

targetOrTestSystem: TNKS2 (Homo sapiens, UniProt Q9H2K2)
Sequence (Q9H2K2 1-1166): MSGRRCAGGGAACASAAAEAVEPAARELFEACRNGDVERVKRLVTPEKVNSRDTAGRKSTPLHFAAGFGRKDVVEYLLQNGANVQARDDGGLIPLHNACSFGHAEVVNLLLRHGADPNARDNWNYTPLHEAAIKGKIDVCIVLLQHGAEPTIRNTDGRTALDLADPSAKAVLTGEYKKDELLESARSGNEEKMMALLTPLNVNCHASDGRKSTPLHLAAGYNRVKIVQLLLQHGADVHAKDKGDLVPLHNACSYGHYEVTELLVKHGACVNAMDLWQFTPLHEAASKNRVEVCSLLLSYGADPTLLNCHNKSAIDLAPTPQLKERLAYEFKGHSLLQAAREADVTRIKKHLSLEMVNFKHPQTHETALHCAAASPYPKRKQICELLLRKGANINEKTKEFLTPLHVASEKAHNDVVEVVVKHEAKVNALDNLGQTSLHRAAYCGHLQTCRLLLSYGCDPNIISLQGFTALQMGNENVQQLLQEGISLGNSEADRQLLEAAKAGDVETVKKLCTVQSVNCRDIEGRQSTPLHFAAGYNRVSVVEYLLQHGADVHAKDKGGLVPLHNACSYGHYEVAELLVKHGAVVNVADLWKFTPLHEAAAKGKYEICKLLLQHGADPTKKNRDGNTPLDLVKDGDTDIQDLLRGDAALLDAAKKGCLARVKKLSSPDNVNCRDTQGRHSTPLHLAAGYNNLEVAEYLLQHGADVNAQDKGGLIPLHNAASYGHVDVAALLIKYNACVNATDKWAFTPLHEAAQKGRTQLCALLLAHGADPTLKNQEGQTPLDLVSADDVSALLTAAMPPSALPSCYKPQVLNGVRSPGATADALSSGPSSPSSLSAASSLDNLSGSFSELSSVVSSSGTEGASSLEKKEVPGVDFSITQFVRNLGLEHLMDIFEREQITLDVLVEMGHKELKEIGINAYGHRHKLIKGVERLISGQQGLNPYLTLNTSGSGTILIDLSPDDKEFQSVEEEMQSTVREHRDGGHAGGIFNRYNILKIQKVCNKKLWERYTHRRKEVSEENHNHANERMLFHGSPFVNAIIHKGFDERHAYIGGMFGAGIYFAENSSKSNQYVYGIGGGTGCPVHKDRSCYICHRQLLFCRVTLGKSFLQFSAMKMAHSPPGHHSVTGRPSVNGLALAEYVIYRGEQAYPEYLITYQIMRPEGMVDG
method: TNKS2 Assay 1 (TNKS2 Histone Ribosylation Assay Kit, biotin-labeled NAD+)
Format: biochemical
cond: chemiluminescent readout, 384 well, first table
assayReadout: log10 IC50 (log10 of the value in nM)

> print(dat)
                                   compound                    targetortestsystem  assayreadout  quantitativereadout
1  CNC(=O)c1nc[nH]c1C(=O)Nc1ccc(NC(=O)c2ccc(F)cc2Cl)cc1 [Example 12]  TNKS2 (Homo sapiens, UniProt Q9H2K2)    log10 IC50                 1.30
2  CNC(=O)c1nc[nH]c1C(=O)Nc1ccc(NC(=O)c2ccc(OCCN3CCN(C)CC3)cc2Cl)cc1 [Example 28]  TNKS2 (Homo sapiens, UniProt Q9H2K2)    log10 IC50                 1.78
3  CNC(=O)c1nc[nH]c1C(=O)Nc1ccc(NC(=O)c2c(Cl)cccc2Cl)cc1 [Example 26]  TNKS2 (Homo sapiens, UniProt Q9H2K2)    log10 IC50                 2.20
4  O=C(Nc1ccc(NC(=O)c2[nH]cnc2C(=O)NCc2ccccc2)cc1)c1ccc(F)cc1Cl [Example 18]  TNKS2 (Homo sapiens, UniProt Q9H2K2)    log10 IC50                 2.93
5  CNC(=O)c1nc[nH]c1C(=O)Nc1ccc(NC(=O)c2c(-c3ccccc3)nn(C)c2Cl)cc1 [Example 17]  TNKS2 (Homo sapiens, UniProt Q9H2K2)    log10 IC50                 3.34
6  CNC(=O)c1ncoc1C(=O)Nc1ccc(NC(=O)c2ccc(F)cc2Cl)cc1 [Example 11]  TNKS2 (Homo sapiens, UniProt Q9H2K2)    log10 IC50                 2.08
7  CC(C)NC(=O)c1nc[nH]c1C(=O)Nc1ccc(NC(=O)c2ccc(F)cc2Cl)cc1 [Example 10]  TNKS2 (Homo sapiens, UniProt Q9H2K2)    log10 IC50                 2.36
8  CNC(=O)c1nc[nH]c1C(=O)Nc1ccc(NC(=O)c2ccc(OCCN(C)C)cc2Cl)cc1 [Example 25]  TNKS2 (Homo sapiens, UniProt Q9H2K2)    log10 IC50                 1.78
